For each of the compounds below, state its MIC.
System: Raoultella planticola
ASSAY TEXT: Antibacterial activity against Klebsiella planticola MTCC 530 assessed as inhibition of bacterial growth incubated for 24 hrs by agar well diffusion method
Assay type: functional
MEASUREMENT SETUP: MTCC 530, 24 h

The compound listed as O=C(N/N=C/c1ccc(O)cc1)c1n[nH]c2c1Cc1ccccc1-2 shows MIC equal to 7.8 µg/mL

The compound listed as COc1ccc2c(c1)Cc1c(C(=O)N/N=C/c3ccc(Cl)cc3)n[nH]c1-2 shows MIC equal to > 125 µg/mL

The compound listed as O=C(N/N=C/c1ccc(Cl)cc1)c1n[nH]c2c1Cc1ccccc1-2 shows MIC equal to > 125 µg/mL

The compound listed as O=C(N/N=C/c1ccc(O)cc1)c1n[nH]c2c1Cc1cc(F)ccc1-2 shows MIC equal to 7.8 µg/mL

The compound listed as COc1ccc2c(c1)Cc1c(C(=O)N/N=C/c3ccc(Br)cc3)n[nH]c1-2 shows MIC equal to > 125 µg/mL

The compound listed as O=C(N/N=C/c1c(F)cc(F)cc1F)c1n[nH]c2c1Cc1cc(F)ccc1-2 shows MIC equal to > 125 µg/mL

The compound listed as O=C(N/N=C/c1ccc(Br)cc1)c1n[nH]c2c1Cc1cc(F)ccc1-2 shows MIC equal to > 125 µg/mL

The compound listed as COc1cc(/C=N/NC(=O)c2n[nH]c3c2Cc2cc(F)ccc2-3)cc(OC)c1OC shows MIC equal to 7.8 µg/mL

The compound listed as COc1ccc(/C=N/NC(=O)c2n[nH]c3c2Cc2cc(F)ccc2-3)cc1OC shows MIC equal to > 125 µg/mL

The compound listed as COc1ccc2c(c1)Cc1c(C(=O)N/N=C/c3cc(OC)c(OC)c(OC)c3)n[nH]c1-2 shows MIC equal to > 125 µg/mL

The compound listed as O=C(N/N=C/c1ccc(Cl)cc1)c1n[nH]c2c1Cc1cc(F)ccc1-2 shows MIC equal to > 125 µg/mL

The compound listed as O=C(N/N=C/c1c(F)cc(F)cc1F)c1n[nH]c2c1Cc1ccccc1-2 shows MIC equal to > 125 µg/mL

All values here come from ChEMBL document CHEMBL4373647.
